# credit: patent EP4696329A1

Molecular target: human ROR2 protein (hROR2, Kactus Biosystems, Cat. No. ROR-HM402) (human, UniProt Q01974 34-403, limits assumed)
Sequence (Q01974 34-403 limits assumed): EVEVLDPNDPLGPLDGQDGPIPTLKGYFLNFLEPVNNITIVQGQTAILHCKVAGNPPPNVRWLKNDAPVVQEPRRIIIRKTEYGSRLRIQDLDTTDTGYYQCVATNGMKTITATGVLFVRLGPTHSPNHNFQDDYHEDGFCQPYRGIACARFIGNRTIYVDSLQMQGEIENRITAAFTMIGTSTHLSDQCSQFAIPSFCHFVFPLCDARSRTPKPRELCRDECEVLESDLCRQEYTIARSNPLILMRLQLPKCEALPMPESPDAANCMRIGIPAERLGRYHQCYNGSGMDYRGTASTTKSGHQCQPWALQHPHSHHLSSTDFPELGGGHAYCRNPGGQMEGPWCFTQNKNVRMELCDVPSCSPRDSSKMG
Assay: ELISA, plate coated with hROR2
READOUT: binding result

YR-4 (antibody, human IgG1, kappa, V domains shown) VH: QVQLQESGPGLVKPSETLSLTCTVSGFSLTRYGVHWIRQPPGKGLEWIGVIWAGGFTNYNSSLKSRVTISKDNSKNQVSLKLSSVTAADTAVYYCARRGDGYSMQYWGQGTLVTVSS VL: EIVLTQSPATLSLSPGERATLSCSASSQVSYIHWYQQKPGQAPRPWIYEISKLASGIPARFSGSGSGTDYTLTISSLEPEDFAVYYCQQWNYPLITFGQGTKLEIKR | binds
